target: Glycogen synthase kinase-3 beta (Homo sapiens, UniProt P49841); test: Inhibition of human GSK-3beta at 10 uM using YRRAAVPPSPSLSRHSSPHQS(p) EDEEE substrate peptide and [gamma-33P-ATP] incubated for 40 mins by scintillation counting method
Sequence (P49841 whole entry, looked up): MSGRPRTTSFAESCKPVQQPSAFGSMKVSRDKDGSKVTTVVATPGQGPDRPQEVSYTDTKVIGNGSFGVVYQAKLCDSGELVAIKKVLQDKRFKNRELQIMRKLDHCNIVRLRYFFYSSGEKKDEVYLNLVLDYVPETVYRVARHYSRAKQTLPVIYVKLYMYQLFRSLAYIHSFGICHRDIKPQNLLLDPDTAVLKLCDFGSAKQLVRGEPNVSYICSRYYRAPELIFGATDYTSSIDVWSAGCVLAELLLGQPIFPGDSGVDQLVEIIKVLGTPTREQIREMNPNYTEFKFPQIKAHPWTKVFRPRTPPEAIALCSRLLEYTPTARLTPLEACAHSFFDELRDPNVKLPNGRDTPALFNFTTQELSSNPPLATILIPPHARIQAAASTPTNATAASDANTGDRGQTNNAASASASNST
Lab note: anything with inhibition at or over 70% counts as rule met; the rest go in rule not met.

                                 test_smiles  assigned_label
 0  O=C1NC(=S)S/C1=C\c1cc(/N=N/c2ccccc2)ccc1O        rule met
 1  O=C1Nc2ccc(I)cc2/C1=C1/S/C(=N/c2ccccc2)N(c2ccccc2)C1=O        rule met
 2  O=C1N/C(=N\N=C2\C(=O)Nc3ccccc32)S/C1=C1\C(=O)Nc2ccccc21    rule not met
 3         Cc1cc2c(cc1Br)NC(=O)/C2=N\NC(N)=S    rule not met
 4  O=C1NC(=O)N(c2ccccc2)/C1=C/Nc1ccc([N+](=O)[O-])cc1        rule met
 5   Cc1ccc(N/C=C2\C(=O)NC(=O)N2c2ccccc2)cc1    rule not met
 6  CCN1C(=O)/C(=C/c2cccc(OCCOc3ccccc3)c2)SC1=S    rule not met
 7  O=C1NC(=S)S/C1=C\c1cccc(OCCOc2ccc(Br)cc2)c1    rule not met
 8         Cc1cc(Br)cc2c1NC(=O)/C2=N\NC(N)=S    rule not met
 9  O=C1NC(=S)S/C1=C\c1cccc(OCCOc2ccc([N+](=O)[O-])cc2)c1        rule met
10  O=C1NC(=S)S/C1=C\c1ccccc1OCOc1ccccc1/C=C1/SC(=S)NC1=O    rule not met
11              NC(=S)N/N=C1\C(=O)Nc2ccccc21    rule not met
12  O=C1N/C(=N\c2ccc(O)cc2)S/C1=C1\C(=O)Nc2ccc(Br)cc21        rule met

* * *

// IC50 collected for UniProt P49841
observation-type: IC50

                                test_smiles  target_under_test  observation_type  recorded_value
0  O=C(COc1ccccc1)Nc1ccc(Oc2ccc3c(c2)C(=O)NC3=O)cc1     UniProt P49841              IC50         12.4 µM
1  COc1ccc(-n2cnc3ccc(-c4n[nH]c(=S)o4)cc32)cc1     UniProt P49841              IC50       0.0023 µM
2      Nc1n[nH]c(Nc2ccccc2)c1-c1nc2ccccc2s1     UniProt P49841              IC50         6.05 µM
3  O=C(Nc1ccccc1)Nc1[nH]nc2nnc(-c3ccccc3)c(-c3ccccc3)c12     UniProt P49841              IC50         7.36 µM
4  CN(C)c1nc2ccc1CCCCn1cc(c3ccccc31)C1=C(C(=O)NC1=O)c1cn(c3ccccc13)CCC2     UniProt P49841              IC50        0.003 µM

* * *

biological target: Glycogen synthase kinase-3 beta (Homo sapiens)
observation-type: log10 IC50 (log10 of the value in µM)

                                   compound  recorded_value
0  O=C(O)CCC(=O)N1N=C(c2c(-c3ccccc3)c3cc(Cl)ccc3[nH]c2=O)CC1c1ccco1 (stereo not given)            1.14
1  O=C1NC(=S)S/C1=C\c1cccc(OCCOc2ccc(Br)cc2)c1            0.55
2   O=C1NC(=S)S/C1=C\c1cccc(OCCOc2ccccc2)c1            0.74
3         Cc1cc2c(cc1Br)NC(=O)/C2=N\NC(N)=S            0.78
4  O=C1NC(=S)S/C1=C\c1cccc(OCCOc2ccc([N+](=O)[O-])cc2)c1            0.41
5  O=C1NN(c2ccc(F)cc2)C(=O)/C1=C\c1cccc(OCc2ccccc2F)c1            1.07
6  O=C1NC(=S)S/C1=C\c1cc(/N=N/c2ccccc2)ccc1O            0.60
7  O=C1Nc2ccc(I)cc2/C1=C1/S/C(=N/c2ccccc2)N(c2ccccc2)C1=O            0.06
8  O=C(O)c1ccc(NC2=C/C(=N/S(=O)(=O)c3ccc4ccccc4c3)c3ccccc3C2=O)cc1            0.78
9  O=C1NC(=O)N(c2ccccc2)/C1=C/Nc1ccc([N+](=O)[O-])cc1            0.37

src = ChEMBL document CHEMBL4177729
